System: Musca domestica Rsp
Assay: Topical LD50 to adult female RSP houseflies
Conditions: Musca domestica, topical, read-out: Topical LD50, Musca domestica Rsp, Alone
Label scheme for LD50: lowest (below 40 mg/kg), middle (40 mg/kg to below 60 mg/kg), highest (60 mg/kg or more)

INSERT INTO results (compound, class_label) VALUES
  ('CCOc1ccc(NC(c2ccc3c(c2)OCO3)C(Cl)(Cl)Cl)cc1 (stereo not drawn) [Compound XVII]', 'lowest'),
  ('COc1ccc(C(Nc2ccc(C)cc2C)C(Cl)(Cl)Cl)cc1 (stereo not drawn) [XXIV]', 'highest'),
  ('CCOc1ccc(NC(c2ccc(C)cc2)C(Cl)(Cl)Cl)cc1 (stereo not drawn) [XII]', 'highest'),
  ('COc1ccc(C(Nc2ccc(Cl)cc2)C(Cl)(Cl)Cl)cc1 (stereo not drawn) [V]', 'lowest'),
  ('CCOc1ccc(NC(c2ccc(OC)cc2)C(Cl)(Cl)Cl)cc1 (stereo not drawn) [XIV]', 'lowest');

Consider Clc1ccc(NC(c2ccc(Cl)cc2)C(Cl)(Cl)Cl)cc1 (stereo not drawn) [Compound I] . To which LD50 class does it belong?
highest

And CCOc1ccc(NC(c2ccccc2)C(Cl)(Cl)Cl)cc1 (stereo not drawn) [XIX] ?
highest

Okay, and COc1ccc(NC(c2ccc(C)cc2)C(Cl)(Cl)Cl)cc1 (stereo not drawn) [Compound X] ?
highest

Same lookup for CCOc1ccc(NC(c2ccc(Cl)cc2)C(Cl)(Cl)Cl)cc1 (stereo not drawn) [VIII] , please.
middle

Then what about the compound CCOc1ccc(C(Nc2ccc(Cl)cc2)C(Cl)(Cl)Cl)cc1 (stereo not drawn) [VII] ?
lowest

Please do the same for CCOc1ccc(NC(c2ccc(OCC)cc2)C(Cl)(Cl)Cl)cc1 (stereo not drawn) [Compound III] as well.
lowest

Again, but for COc1ccc(C(Nc2ccc(C)c(C)c2)C(Cl)(Cl)Cl)cc1 (stereo not drawn) [XXIII]
highest

CCOc1ccc(NC(c2ccccc2OCC)C(Cl)(Cl)Cl)cc1 (stereo not drawn) [XX] , same question.
highest

Now consider CCCCOc1ccc(C(Nc2ccc(OC)cc2)C(Cl)(Cl)Cl)cc1 (stereo not drawn) [XVIII] .
highest

What do we get for COc1ccc(NC(c2ccc(Cl)cc2)C(Cl)(Cl)Cl)cc1 (stereo not drawn) [VI] ?
middle

What about Cc1ccc(NC(c2ccc(C)cc2)C(Cl)(Cl)Cl)cc1 (stereo not drawn) [IV] ?
middle

Thanks! And CCOc1ccc(C(Nc2ccccc2OCC)C(Cl)(Cl)Cl)cc1 (stereo not drawn) [XXI] ?
highest

Also COc1ccc(C(Nc2ccc(C)cc2)C(Cl)(Cl)Cl)cc1 (stereo not drawn) [IX] ?
middle

Lookup CCOc1ccc(C(Nc2ccccc2OCC)C(Cl)(Cl)Cl)c(OCC)c1 (stereo not drawn) [XXII]
highest

====

System: Anopheles albimanus larvae
Assay: LC50 to Anopheles albimanus larvae
Type: in vivo, Anopheles albimanus Weid
With a cut-off of 0.6 ppm, any LC50 Anopheles albimanus larvae strictly below it is called YES; any LC50 Anopheles albimanus larvae meeting it or above is called NO.

Decide: LC50 Anopheles albimanus larvae of CCOc1ccc(C(Nc2ccc(OC)cc2)C(Cl)(Cl)Cl)cc1 (centres unmarked) strictly below 0.6 ppm?
NO

Query CCCCOc1ccc(C(Nc2ccc(OC)cc2)C(Cl)(Cl)Cl)cc1 (centres unmarked) next
NO

// repeat for COc1ccc(NC(c2ccc(N(C)C)cc2)C(Cl)(Cl)Cl)cc1 (centres unmarked) and report
NO

What do you have for CCOc1ccc(NC(c2ccc3c(c2)OCO3)C(Cl)(Cl)Cl)cc1 (centres unmarked) ?
YES
